System: CWR22R
method: Antitumor activity against human 22Rv1 by modified propidium iodide assay
Type: functional, cell-based
readoutLabel: IC50

# compound, IC50
measured = [
    ("C[C@@]1(C(=O)O)[C@@H](O)CC[C@]2(C)c3cc4c(cc3CC[C@@H]12)[nH]c1ccccc14 [XIAMYCIN]", "> 30 µM"),
]

Next compound, IC50 to be filled in.
Reported IC50 ( `COC(=O)[C@]1(C)[C@@H](O)CC[C@]2(C)c3cc4c(cc3CC[C@@H]12)[nH]c1ccccc14` ) = 9.87 µM

---

method: Antitumor activity against human LXFL 529L by modified propidium iodide assay
Type: functional
readoutLabel: IC50 (µM)
Express your answer in µM, writing the number without its unit.

// `COC(=O)[C@]1(C)[C@@H](O)CC[C@]2(C)c3cc4c(cc3CC[C@@H]12)[nH]c1ccccc14` : IC50 value = 10
